system: HT29; details: 72 h, relative to DMSO; 10 µM
Where a name gives a salt, the structure may show the parent alone.
Labelling field: enter Fulfilled if recorded Relative cell viability (%) is less than 80%. Enter Not fulfilled if it equals or exceeds that cut-off.

Prompt line: Regarding C[C@H]1O[C@@H](O[C@H]2[C@@H](O)C[C@H](O[C@H]3[C@@H](O)C[C@H](O[C@H]4CC[C@@]5(C)[C@H](CC[C@@H]6[C@@H]5C[C@@H](O)[C@]5(C)[C@@H](C7=CC(=O)OC7)CC[C@]65O)C4)O[C@@H]3C)O[C@@H]2C)C[C@H](O)[C@@H]1O , kindly confirm whether its Relative cell viability (%) is beneath 80%.
Response line: Fulfilled

Prompt line: Moving on to the next molecule: CC(C)n1c(/C=C/[C@@H](O)C[C@@H](O)CC(=O)O)c(-c2ccc(F)cc2)c2ccccc21 (racemic) [Fluvastatin Sodium]
Response line: Not fulfilled

Prompt line: Moving on to the next molecule: O=S(=O)(O)CCS
Response line: Fulfilled

Prompt line: Moving on to the next molecule: CNC[C@H](O)c1ccc(O)c(O)c1 [Epinephrine HCl]
Response line: Fulfilled

Prompt line: Moving on to the next molecule: Cc1cccc(C)c1NC(=O)CN1CCCC1=O
Response line: Not fulfilled

Prompt line: Moving on to the next molecule: O=C(O)c1cccnc1Nc1cccc(C(F)(F)F)c1
Response line: Not fulfilled

Prompt line: Moving on to the next molecule: Cn1ncc(Cl)c1-c1cc(C(=O)N[C@H](CN)Cc2cccc(F)c2)sc1Cl
Response line: Fulfilled

Prompt line: Moving on to the next molecule: CC1=C(/C=C/C(C)=C/C=C/C(C)=C\C(=O)O)C(C)(C)CCC1
Response line: Fulfilled

Prompt line: Moving on to the next molecule: CC1CC(OC(=O)C(O)c2ccccc2)CC(C)(C)C1 (centres unmarked) [Cyclandelate]
Response line: Fulfilled

Prompt line: Moving on to the next molecule: COc1cccc(-c2ccc(NC(=O)C3=C(C(=O)O)CCC3)c(F)c2)c1
Response line: Not fulfilled

Prompt line: Moving on to the next molecule: CNCCC(Oc1ccc(C(F)(F)F)cc1)c1ccccc1 (centres unmarked) [Fluoxetine HCl]
Response line: Not fulfilled

Prompt line: Moving on to the next molecule: NC(=O)OCC(COC(N)=O)c1ccccc1 [Felbamate]
Response line: Fulfilled

Prompt line: Moving on to the next molecule: Cc1nnc(C(C)C)n1[C@@H]1C[C@H]2CC[C@@H](C1)N2CC[C@H](NC(=O)C1CCC(F)(F)CC1)c1ccccc1
Response line: Not fulfilled

Prompt line: Moving on to the next molecule: CN(C)CCOC(C)(c1ccccc1)c1ccccn1 (centres unmarked) [Doxylamine Succinate]
Response line: Not fulfilled

Prompt line: Moving on to the next molecule: COc1nc(N)nc2c1ncn2[C@@H]1O[C@H](CO)[C@@H](O)[C@@H]1O
Response line: Not fulfilled

FYI, the data here is from paper PMC11672294.
